System: XisF4 (Pseudomonas aeruginosa PAO1), ORF:74e9b1d3
Sequence: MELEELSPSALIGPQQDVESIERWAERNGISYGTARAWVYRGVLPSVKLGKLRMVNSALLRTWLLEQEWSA
Experiment: EMSA
Settings: EMSA: 0.25 pmol 3'-biotin DNA, 25°C 2 h, LightShift Chemiluminescent EMSA kit buffer (composition and pH not stated), 6% DNA retardation gel, 0.5x TBE
Endpoint: binding

[
  {
    "Input sequence": "TTCGCCGGGGTGATCGACACCAGCGCGGTGGAATCGGCGATCACCGATGGCCAGGGCGATATGAAGGCCATTGGCGGCTACATCGTCGGCGCCCTGGTGATCCTGGCCGTTGCCGGCCTGATCTACAGCATGTTGCGCAAGGCGTAACGGGTGCTCTGGTCGGTGTGGTTGGGGGCGTTCTTCGCCGGCGCCTTCATCACCGGGTACCGGACCGGCGAATTCTTCTAACCGAACAGACCGAGGCGGAAGCCCCCTCCGGAGTTTCCGGCAGGGGGCTTTTTTGTGTGGGGTCTTACG (double strand) [P3 (PA0724 promoter)]",
    "Observed measurement": "no binding"
  },
  {
    "Input sequence": "TGCGCTCCGCCCACCGTTCGATGGACTCCACATCCTGTTGCGGCCCTATCAGGGCACTGGGGCTAAGCTCTTCCAGTTCCATGCTCATTCCGTCACTATTCGTGGCATTAGCCATACGCAGCTAGAGAAATAATTACCCTGGAGAAATTATTTCCCCAAAGCCACGTCAGGGCAACTATTTCCCCGGAATAAATTTCTATATGAGCACGTCAGCCGATAGAGCAAGACTATT (double strand) [P1 (xisF4-pf4r intergenic region)]",
    "Observed measurement": "binds"
  },
  {
    "Input sequence": "CGCGGTAAAGCCTGAAAACAGAAAGCCCCTGGCACTGGTTGGTGTCAGGGGCTTTTGCATTGGGATCTGGAGCGGGCGAAGGGAATCGAACCCTCGTCATGAGCTTGGGAAGCTCAGGTAATGCCATTATACGACGCCCGCTCGGACGGCTTTTGCGGCCAGGGCGCCTTTTTACCAGATGCGCGGC (double strand) [Pf4 attB]",
    "Observed measurement": "no binding"
  },
  {
    "Input sequence": "TCGATTGGGAATTCCTCGCCCCGGTGGCGATGGGCTGGGCGCTGCATCACTGGTGGACGGTGATGACGGCGCTAGCGGCGGTAGGGGTGCCGCCATGAGGGGCGGGCCGCGCCGCCGGCCGGGAGCGCAAGGCATGAGCGATAGGCCGAAGGCGCGGCCGACGCCCCTGTAACACGTCAGATAAGCCACCTATTGCGGTTTCAATTCGTACCAATTTGGATCGTTAAAG (double strand) [P4 (PA0727 promoter)]",
    "Observed measurement": "binds"
  }
]
